TARGET_UNDER_TEST: GluA1o-γ8 (Homo sapiens (Human), UniProt P42261+Q8WXS5)
Sequence (P42261 other isoform, or with tags, fused parts or gaps): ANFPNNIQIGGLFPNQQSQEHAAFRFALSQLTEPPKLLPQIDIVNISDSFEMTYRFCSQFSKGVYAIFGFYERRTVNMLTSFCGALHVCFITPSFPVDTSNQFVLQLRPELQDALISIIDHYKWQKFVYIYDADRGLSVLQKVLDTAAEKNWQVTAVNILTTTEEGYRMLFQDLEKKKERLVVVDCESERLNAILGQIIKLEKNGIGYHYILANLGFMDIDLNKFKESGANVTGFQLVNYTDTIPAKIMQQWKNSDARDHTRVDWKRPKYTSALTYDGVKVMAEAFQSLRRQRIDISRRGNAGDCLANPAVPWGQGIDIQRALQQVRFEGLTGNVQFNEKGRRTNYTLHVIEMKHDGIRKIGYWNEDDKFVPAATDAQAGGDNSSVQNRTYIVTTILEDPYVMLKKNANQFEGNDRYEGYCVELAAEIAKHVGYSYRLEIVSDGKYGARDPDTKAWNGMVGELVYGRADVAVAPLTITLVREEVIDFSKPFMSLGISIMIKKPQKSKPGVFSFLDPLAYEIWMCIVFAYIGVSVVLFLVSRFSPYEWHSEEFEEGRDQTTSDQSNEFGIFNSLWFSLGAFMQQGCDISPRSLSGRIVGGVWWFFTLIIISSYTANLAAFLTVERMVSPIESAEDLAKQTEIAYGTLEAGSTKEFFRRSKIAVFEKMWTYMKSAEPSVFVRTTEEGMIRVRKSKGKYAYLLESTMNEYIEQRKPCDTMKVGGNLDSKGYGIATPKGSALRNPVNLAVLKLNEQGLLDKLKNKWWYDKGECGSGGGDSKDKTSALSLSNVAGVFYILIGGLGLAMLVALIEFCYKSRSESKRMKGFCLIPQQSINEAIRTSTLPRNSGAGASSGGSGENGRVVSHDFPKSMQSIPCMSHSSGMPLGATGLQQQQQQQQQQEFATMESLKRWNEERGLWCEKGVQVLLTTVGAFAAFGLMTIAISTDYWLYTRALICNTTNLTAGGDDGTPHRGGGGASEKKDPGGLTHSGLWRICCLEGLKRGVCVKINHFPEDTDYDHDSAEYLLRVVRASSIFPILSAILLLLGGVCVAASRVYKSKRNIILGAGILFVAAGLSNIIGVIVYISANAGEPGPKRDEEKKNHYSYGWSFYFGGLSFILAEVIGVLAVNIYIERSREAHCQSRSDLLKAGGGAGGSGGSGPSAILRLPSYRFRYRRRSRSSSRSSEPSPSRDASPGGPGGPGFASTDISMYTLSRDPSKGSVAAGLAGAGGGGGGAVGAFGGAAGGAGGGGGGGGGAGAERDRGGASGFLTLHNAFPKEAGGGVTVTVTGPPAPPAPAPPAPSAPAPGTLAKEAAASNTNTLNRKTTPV
PROTOCOL_DETAILS: Calcium flux assay (FLIPR), inhibition of TARP γ8 dependent AMPA receptor activity
Type: cell-based
EXPERIMENTAL_PARAMETERS: HEK293 cells stably expressing GRIA1o-CACNG8 fusion construct; calcium flux following 15 μM glutamate; negative log of IC50 in molar
TEST_READOUT: pIC50

>>> print(df.to_string())
                               smiles_entry  reading
0  O=C1Cc2cc(-c3c(C(F)(F)F)ccn4cc(C(F)(F)F)nc34)cc(Cl)c2N1      9.8
1  Cc1cc(-c2c(-c3ccc(F)cc3)ccn3nc(C4CC4)nc23)cc2cn[nH]c12     10.1
2  Fc1ccc(-c2ccn3nc(C(F)(F)F)nc3c2-c2cc(F)c3[nH]ncc3c2)cc1      9.0
3  Cc1nc(C2CC2)c(-c2cc(Cl)c3[nH]ncc3c2)c2nc(C(F)(F)F)cn12      8.9

---

TARGET_UNDER_TEST: GluA1o-γ8 (Homo sapiens (Human), UniProt P42261+Q8WXS5)
PROTOCOL_DETAILS: Calcium flux assay (FLIPR), inhibition of TARP γ8 dependent AMPA receptor activity
Type: cell-based
EXPERIMENTAL_PARAMETERS: HEK293 cells stably expressing GRIA1o-CACNG8 fusion construct; calcium flux following 15 μM glutamate; negative log of IC50 in molar
Protocol: This assay was used to test compounds for their ability to inhibit TARP γ8 dependent AMPA receptor activity. The AMPA receptor is a non-selective cation channel activated by glutamate. […] Cell expressing the GRIA1o-CACNG8 fusion construct were grown in a monolayer in 96- or 384-well microtiter plates. […] Calcium flux following the addition of 15 μM glutamate was monitored using a Molecular Devices FLIPR Tetra. […]
Class MET: pIC50 at least 9. Class NOT MET: pIC50 below 9.

>>> print(df.to_string())
                               smiles_entry  assigned_category
0  CC(C)c1ncn2cc(C(F)(F)F)nc2c1-c1cc(Cl)c2[nH]ncc2c1                MET
1  Cc1ccn2nc(C(C)C)nc2c1-c1cc(C)c2[nH]ncc2c1            NOT MET
2  FC(F)c1ccn2nc(C(F)(F)F)nc2c1-c1cc(Cl)c2[nH]ncc2c1                MET
3  Cc1cc(-c2c(C(F)(F)F)ccn3nc(C(F)(F)F)nc23)cc2cn[nH]c12                MET
4  CCc1ncn2cc(C(F)(F)F)nc2c1-c1cc(C)c2[nH]ncc2c1            NOT MET
5  FC(F)(F)c1nc2c(-c3cc(Cl)c4[nH]ncc4c3)c(C(F)(F)F)ccn2n1                MET
6  Cc1cc(-c2c(-c3ccc(F)cc3)ccn3nc(C4CCC4)nc23)cc2cn[nH]c12                MET

---

Below: a set of entries, each annotated with reported pIC50.
TARGET_UNDER_TEST: GluA1o-γ8 (Homo sapiens (Human), UniProt P42261+Q8WXS5)
PROTOCOL_DETAILS: Calcium flux assay (FLIPR), inhibition of TARP γ8 dependent AMPA receptor activity
Format: cell-based
EXPERIMENTAL_PARAMETERS: HEK293 cells stably expressing GRIA1o-CACNG8 fusion construct; calcium flux following 15 μM glutamate; negative log of IC50 in molar
TEST_READOUT: pIC50

>>> df
                                smiles_entry  reading
 0  FC(F)(F)c1ccn2nc(C3CC3)nc2c1-c1cc(Cl)c2[nH]ncc2c1      9.8
 1  Cc1cc(-c2c(-c3ccc(F)cc3)ccn3nc(C(F)F)nc23)cc2cn[nH]c12     10.5
 2  Cc1cn2ccc(C(F)(F)F)c(-c3cc(C)c4[nH]ncc4c3)c2n1      8.1
 3  CCc1nc2c(-c3cc(C)c4[nH]ncc4c3)c(C(F)(F)F)ccn2n1      8.8
 4  Cc1cc(-c2c(C(F)(F)F)ccn3cc(C4CC4)nc23)cc2cn[nH]c12      9.6
 5  FC(F)c1cn2cnc(C3CC3)c(-c3cc(Cl)c4[nH]ncc4c3)c2n1      8.6
 6  FC(F)(F)c1ncn2c(Cl)c(C3CC3)nc2c1-c1cc(Cl)c2[nH]ncc2c1      9.9
 7  Cc1cc(-c2c(C(F)(F)F)ccn3cc(C(F)(F)F)nc23)cc2cn[nH]c12      9.5
 8  Cc1cc(-c2c(C(F)(F)F)ccn3cc(C(F)F)nc23)cc2cn[nH]c12      9.3
 9  Cc1cc(-c2c(C(F)F)ccn3nc(C(F)(F)F)nc23)cc2c1NC(=O)C2      9.0
10  Cc1ccn2cc(C(F)(F)F)nc2c1-c1cc(F)c2c(c1)CC(=O)N2      7.2

---

Below: a set of entries, each annotated with reported pIC50.
TARGET_UNDER_TEST: GluA1o-γ8 (Homo sapiens (Human), UniProt P42261+Q8WXS5)
PROTOCOL_DETAILS: Calcium flux assay (FLIPR), inhibition of TARP γ8 dependent AMPA receptor activity
Type: cell-based
EXPERIMENTAL_PARAMETERS: HEK293 cells stably expressing GRIA1o-CACNG8 fusion construct; calcium flux following 15 μM glutamate; negative log of IC50 in molar
TEST_READOUT: pIC50

>>> df
                                smiles_entry  test_readout  reading
 0  CC(C)c1cn2ccc(C(F)(F)F)c(-c3cc(Cl)c4[nH]ncc4c3)c2n1         pIC50     10.6
 1  Cc1ccn2cc(C(F)(F)F)nc2c1-c1cc(C)c2[nH]ncc2c1         pIC50      8.0
 2  Cc1cc(-c2c(C(F)(F)F)ccn3nc(C4CC4)nc23)cc2cn[nH]c12         pIC50      9.7
 3  O=C1Cc2cc(-c3c(C(F)(F)F)ncn4cc(C5CC5)nc34)cc(F)c2N1         pIC50      5.3
 4  Cc1cc(-c2c(-c3ccc(F)cc3)ccn3nc(C4CCCC4)nc23)cc2cn[nH]c12         pIC50     10.8
 5  Cc1cc(-c2c(C3CCCC3)ccn3nc(C(F)(F)F)nc23)cc2cn[nH]c12         pIC50     10.1
 6  Cc1nc2c(-c3cc(C)c4[nH]ncc4c3)c(C(F)(F)F)ccn2n1         pIC50      7.9
 7  O=c1[nH]c2ccc(-c3c(-c4ccc(F)cc4)ccn4nc(C(F)(F)F)nc34)cc2s1         pIC50      9.6
 8  CCc1cn2ccc(C(F)(F)F)c(-c3cc(C)c4[nH]ncc4c3)c2n1         pIC50      9.4
 9  CCc1nc2c(-c3cc(C)c4c(c3)CC(=O)N4)c(C(F)(F)F)ccn2n1         pIC50      8.7
10  Cc1cc(-c2c(Cl)ccn3nc(C(F)(F)F)nc23)cc2cn[nH]c12         pIC50      8.5
11  Cc1ncn2cc(C(F)(F)F)nc2c1-c1cc(Cl)c2[nH]ncc2c1         pIC50      8.5
12  Cc1cc(-c2c(C(F)F)ccn3nc(C(F)(F)F)nc23)cc2cn[nH]c12         pIC50      9.2
13  FC(F)c1nc2c(-c3cc(Cl)c4[nH]ncc4c3)c(C(F)(F)F)ccn2n1         pIC50      9.5
14  Cc1ccn2cc(C(F)(F)F)nc2c1-c1ccc2[nH]ncc2c1         pIC50      7.2
15  Cc1cc(-c2c(Cl)ccn3cc(C(F)(F)F)nc23)cc2cn[nH]c12         pIC50      9.0
16  Cc1cc(-c2c(C(F)(F)F)ccn3cc(C(F)(F)F)nc23)cc2c1NC(=O)C2         pIC50      9.4
17  FC(F)(F)c1cn2ccc(C(F)(F)F)c(-c3ccc4[nH]ncc4c3)c2n1         pIC50      7.5
18  O=C1Cc2cc(-c3c(C(F)(F)F)ccn4nc(C(F)F)nc34)cc(Cl)c2N1         pIC50      8.9
19  Cc1ccn2nc(C(F)(F)F)nc2c1-c1cc(C)c2[nH]ncc2c1         pIC50      8.4
20  Cc1cc(-c2c(-c3ccc(F)cc3)ccn3nc(C(F)(F)F)nc23)cc2cn[nH]c12         pIC50     10.5
21  Cc1cc(-c2c(C(F)(F)F)ccn3nc(C(F)F)nc23)cc2cn[nH]c12         pIC50      9.0
22  FC(F)(F)c1ncn2cc(C3CC3)nc2c1-c1cc(Cl)c2[nH]ncc2c1         pIC50      9.9
23  CC(C)c1nc2c(-c3cc(Cl)c4[nH]ncc4c3)c(C(F)(F)F)ccn2n1         pIC50      9.9
24  Cc1ccn2cc(C(C)(C)C)nc2c1-c1cc(C)c2[nH]ncc2c1         pIC50      7.5
25  Cc1ccn2cc(C3CC3)nc2c1-c1cc(C)c2[nH]ncc2c1         pIC50      7.6
26  CCc1cn2cnc(C(F)(F)F)c(-c3cc(Cl)c4[nH]ncc4c3)c2n1         pIC50      9.3
27  CC(C)c1ncn2cc(C(F)F)nc2c1-c1cc(Cl)c2[nH]ncc2c1         pIC50      9.5
28  CCc1ccn2nc(C(F)(F)F)nc2c1-c1cc(C)c2[nH]ncc2c1         pIC50      9.1
